# target entity: human tau(pS422) (Homo sapiens, UniProt P10636, S739X)
# test: BIAcore kinetic screening and kinetic rates of humanized VH/VL combinations
# Assay type: binding
# condition context: 25 °C; VL17 or VL19 with VH variants
Assignment: determine reported kd for the given molecules.
Give bare numbers, in s⁻¹.

INSERT INTO results (molecule, recorded_result) VALUES
  ('VL17 with VH18: anti-human tau(pS422) antibody; VH SEQ ID NO: 52, VL SEQ ID NO: 37 (antibody, V domains shown, humanized sequence) VH: QQLVESGGGLVQPGGSLRLSCAASGFSLSSNAINWVRQAPGKGLEWVGYIAVSGNTYYADSVKGRFTISRDNSKNTLYLQMNSLRAEDTAVYYCGKSNIWGQGTLVTVSS VL: DIQMTQSPSSLSASVGDRVTITCRSSQSVRTNKLAWFQQKPGQPPKRLIYSASTLDFGVPSRFSGSGSGTEFTLTISSLQPEDFATYYCLGYFDCSIADCVAFGGGTKVEIK', 0.0023);

Query block: In one line, give reported kd of the entry VL19 with VH22: anti-human tau(pS422) antibody; VH SEQ ID NO: 54, VL SEQ ID NO: 38 (antibody, V domains shown, humanized sequence) VH: EVQLLESGGGLVQPGGSLRLSCAASGFSLSSNAINWVRQAPGKGLEWVGYIAVSGNTYYADSVKGRFTISRDNSKNTLYLQMNSLRAEDTAVYYCGKSNIWGQGTLVTVSS VL: AQVMTQSPSSLSASVGDRVTITCRSSQSVRTNKLAWFQQKPGQPPKRLIYSASTLDFGVPSRFSGSGSGTEFTLTISSLQPEDFATYYCLGYFDCSIADCVAFGGGTKVEIK .
Result block: 0.0021
